// provenance: the supplement of paper PMC7411054

# Tested on: A549-TUBA1B-RELA
# Experimental details: phenotypically active (imaging signature differs from DMSO and reproducible) at any of 0.3-9 uM (binary (1 = active, 0 = inactive)); higher = active
# Assay conditions: treatment time: 24 h
Structures can show the parent of a compound that is named as a salt.
Labels: active, inactive

>  <Compound>
O=C1c2c(O)cccc2Cc2cccc(O)c21 [anthralin]

>  <Class label>
inactive

$$$$
>  <Compound>
C=C1C[C@@]23CCC4[C@@](C)(CCC[C@@]4(C)C(=O)O[C@@H]4O[C@H](CO)C(O)[C@H](O)C4O)C2CC[C@@]1(O[C@H]1O[C@H](CO)C(O)[C@H](O)[C@H]1O[C@@H]1O[C@H](CO)[C@@H](O)[C@H](O)[C@H]1O)C3 (some centres not stated) [Stevioside]

>  <Class label>
inactive

$$$$
>  <Compound>
CC(C)c1nc(CN(C)C(=O)N[C@H](C(=O)N[C@@H](Cc2ccccc2)C[C@H](O)[C@H](Cc2ccccc2)NC(=O)OCc2cncs2)C(C)C)cs1 [ritonavir]

>  <Class label>
inactive

$$$$
>  <Compound>
COc1cc(-c2cn(C)c(=O)c3cnccc23)c(OC)cc1CN(C)C

>  <Class label>
inactive

$$$$
>  <Compound>
CCCS(=O)(=O)Nc1ccc(F)c(C(=O)c2c[nH]c3ncc(Cl)cc23)c1F

>  <Class label>
active

$$$$
>  <Compound>
CCSc1ccc2c(c1)N(CCCN1CCN(C)CC1)c1ccccc1S2 [thiethylperazine]

>  <Class label>
active

$$$$
>  <Compound>
CCc1ccc(CCOc2ccc(CC3SC(=O)NC3=O)cc2)nc1 (configuration not stated) [Pioglitazone hydrochloride]

>  <Class label>
inactive

$$$$

----------
# Test system: WPMY1-GM130-SQSTM1
# Experimental details: phenotypically active (imaging signature differs from DMSO and reproducible) at any of 0.3-9 uM (binary (1 = active, 0 = inactive)); higher = active
# Assay conditions: treatment time: 24 h
Labels: 1 (yes) (active), 0 (no) (inactive)

>  <Compound>
CC(C)(C)c1ccc2cc(C#N)c(C#N)cc2c1

>  <Class label>
0 (no)

$$$$
>  <Compound>
CCOC(=O)c1c(CSc2ccccc2)n(C)c2cc(Br)c(O)c(CN(C)C)c12

>  <Class label>
1 (yes)

$$$$
>  <Compound>
C[C@@H]1O[C@@H](O[C@H]2[C@H](Oc3cc(O)c4c(c3)O[C@H](c3ccc(O)cc3)CC4=O)O[C@H](CO)[C@@H](O)[C@@H]2O)[C@H](O)[C@H](O)[C@H]1O [Naringin hydrate]

>  <Class label>
0 (no)

$$$$
>  <Compound>
O=c1[nH]cnc2c1ncn2[C@H]1CC[C@@H](CO)O1

>  <Class label>
0 (no)

$$$$

----------
// phenotypically active lookup, one value per entry
# Tested on: A549-GM130-SQSTM1
# Experimental details: phenotypically active (imaging signature differs from DMSO and reproducible) at any of 0.3-9 uM (binary (1 = active, 0 = inactive)); higher = active
# Assay conditions: treatment time: 24 h
Counter-ions that a name gives are not always drawn.

>  <Molecule>
CCOC(=O)C1=C[C@]2(CC)CCCN3CCc4c(n1c1ccccc41)[C@@H]32 [Vinpocetine]

>  <phenotypically active>
0

$$$$
>  <Molecule>
CCC1(O)CC2CN(CCc3c([nH]c4ccccc34)C(C(=O)OC)(c3cc4c(cc3OC)N(C)C3C(O)(C(=O)OC)C(OC(C)=O)C5(CC)C=CCN6CCC43C65)C2)C1 (stereo not drawn) [Vinblastine sulfate]

>  <phenotypically active>
1

$$$$
>  <Molecule>
Cc1[nH]c2ccccc2c1CCNC(=O)c1ccccc1F

>  <phenotypically active>
0

$$$$
>  <Molecule>
C=CCc1ccc(O)c(-c2ccc(O)c(CC=C)c2)c1 [Honokiol]

>  <phenotypically active>
0

$$$$
>  <Molecule>
COc1cc2c(cc1OC)C(=O)C(CC1CCN(Cc3ccccc3)CC1)C2 (stereo not drawn) [donepezil]

>  <phenotypically active>
0

$$$$
>  <Molecule>
COc1cc(C(=O)NC2CCN(C)CC2)c(F)cc1Nc1ncc2c(n1)N(C1CCCC1)CC(F)(F)C(=O)N2C [TAK 960 hydrochloride]

>  <phenotypically active>
1

$$$$
>  <Molecule>
COc1cc(N2CCC(N)CC2)ccc1Nc1ncc(Cl)c(-c2c[nH]c3ccccc23)n1

>  <phenotypically active>
1

$$$$
>  <Molecule>
CC(=O)Nc1ccc(NC(=S)NC(=O)c2ccc(C(C)(C)C)cc2)cc1 [Tenovin-1]

>  <phenotypically active>
1

$$$$

----------
// phenotypically active lookup, one value per entry
# Tested on: WPMY1-GM130-SQSTM1
# Experimental details: phenotypically active (imaging signature differs from DMSO and reproducible) at any of 0.3-9 uM (binary (1 = active, 0 = inactive)); higher = active
# Assay conditions: treatment time: 24 h
Where a name gives a salt, the structure may show the parent alone.

>  <Molecule>
COc1cc(-c2cn(C)c(=O)c3cnccc23)c(OC)cc1CN(C)C

>  <phenotypically active>
0

$$$$
>  <Molecule>
CCOC(=O)[C@H](CCc1ccccc1)N[C@@H](C)C(=O)N1[C@H](C(=O)O)C[C@@H]2CCC[C@@H]21

>  <phenotypically active>
0

$$$$
>  <Molecule>
CN(C)CC(=O)Nc1ccc2[nH]c(=O)c3ccccc3c2c1 [PJ 34 hydrochloride]

>  <phenotypically active>
1

$$$$
>  <Molecule>
COc1cc2c(cc1O)CC[C@@H]1[C@@H]2CC[C@]2(C)[C@@H](O)CC[C@@H]12

>  <phenotypically active>
0

$$$$
>  <Molecule>
C[C@H](Cc1cc2c(c(C(N)=O)c1)N(CCCO)CC2)NCCOc1ccccc1OCC(F)(F)F

>  <phenotypically active>
0

$$$$
>  <Molecule>
O=C(NC(NC(=S)Nc1ccc(F)c([N+](=O)[O-])c1)C(Cl)(Cl)Cl)C(c1ccccc1)c1ccccc1 (centres undefined)

>  <phenotypically active>
1

$$$$
>  <Molecule>
COCCCC/C(=N/OCCN)c1ccc(C(F)(F)F)cc1

>  <phenotypically active>
0

$$$$
>  <Molecule>
C[C@@H](Nc1ncnc2[nH]c(-c3ccc(O)cc3)cc12)c1ccccc1 [PKI 166 hydrochloride]

>  <phenotypically active>
1

$$$$
>  <Molecule>
Cc1cc(Nc2nc(N[C@@H](C)c3ncc(F)cn3)ncc2Cl)n[nH]1

>  <phenotypically active>
1

$$$$
>  <Molecule>
Clc1ccc2c(c1)C(N1CCNCC1)=Nc1ccccc1O2

>  <phenotypically active>
0

$$$$
>  <Molecule>
C[N+](C)(CCCCCC[N+](C)(C)CCCN1C(=O)c2ccccc2C1=O)CCCN1C(=O)c2ccccc2C1=O [W-84 dibromide]

>  <phenotypically active>
0

$$$$
>  <Molecule>
O=C(Cn1ccnc1[N+](=O)[O-])NCc1ccccc1

>  <phenotypically active>
0

$$$$
>  <Molecule>
NCC(=O)Nc1ccc(-n2nc(C(F)(F)F)cc2-c2ccc3c(ccc4ccccc43)c2)cc1

>  <phenotypically active>
1

$$$$
>  <Molecule>
CCN(CC)c1ccc(/C=N/NC(=O)c2ccncc2)c(O)c1

>  <phenotypically active>
1

$$$$
>  <Molecule>
COc1ccc(Cl)cc1NC(=O)Nc1cc(C)nc2ccccc12

>  <phenotypically active>
0

$$$$
>  <Molecule>
Cc1nc(=O)c2c([nH]1)CCSC2

>  <phenotypically active>
0

$$$$
>  <Molecule>
COc1nc(N)nc2c1ncn2[C@@H]1O[C@H](CO)[C@@H](O)[C@@H]1O

>  <phenotypically active>
0

$$$$
>  <Molecule>
COP(=O)(OC)OC(c1ccc(Cl)cc1)P(=O)(OC)OC (centres undefined)

>  <phenotypically active>
0

$$$$
>  <Molecule>
Nc1ncnc2c1cnn2-c1ccccc1

>  <phenotypically active>
0

$$$$

----------
# Test system: A549-ACTB-RAB5A
# Experimental details: phenotypically active (imaging signature differs from DMSO and reproducible) at any of 0.3-9 uM (binary (1 = active, 0 = inactive)); higher = active
# Assay conditions: treatment time: 24 h
Structures can show the parent of a compound that is named as a salt.

>  <Compound>
Cc1[nH]c(=O)c(C#N)cc1-c1ccncc1

>  <phenotypically active>
0

$$$$
>  <Compound>
CCCCOc1c(C(=O)c2c(F)cc(C)cc2F)cnc2[nH]ncc12

>  <phenotypically active>
1

$$$$
>  <Compound>
CCCCCC1CC1CC1CC1CCCCCCCC(=O)O (centres undefined)

>  <phenotypically active>
0

$$$$
>  <Compound>
O=C(O)[C@]1(O)C[C@H](O)[C@@H](O)[C@@H](O)C1

>  <phenotypically active>
0

$$$$
>  <Compound>
CCN(CC)CCNc1ccc(CO)c2sc3ccccc3c(=O)c12

>  <phenotypically active>
1

$$$$
>  <Compound>
COc1cccc(-c2cc(F)ccc2[C@H]2Cc3nc(N)nc(C)c3C(=O)N2)n1

>  <phenotypically active>
1

$$$$
>  <Compound>
C/C=C1\NC(=O)[C@H]2CSSCCC=C[C@H](CC(=O)N[C@H](C(C)C)C(=O)N2)OC(=O)[C@H](C(C)C)NC1=O

>  <phenotypically active>
1

$$$$
>  <Compound>
O=C(O)c1cc(/N=N/c2ccc(O)c(C(=O)O)c2)ccc1O

>  <phenotypically active>
0

$$$$
>  <Compound>
C[C@H](NCCc1ccc(O)cc1)[C@H](O)c1ccc(O)cc1

>  <phenotypically active>
0

$$$$
>  <Compound>
CC(=O)N1CCN(C)CC1 [1-Acetyl-4-methylpiperazine hydrochloride]

>  <phenotypically active>
0

$$$$
>  <Compound>
CCCCCOC(=O)Nc1nc(=O)n([C@@H]2O[C@H](C)[C@@H](O)[C@H]2O)cc1F

>  <phenotypically active>
0

$$$$
>  <Compound>
CCc1c(C(=O)Nc2cc(S(=O)(=O)N(CC)CC)ccc2O)[nH]c(C)c1C(C)=O

>  <phenotypically active>
0

$$$$
>  <Compound>
CC1CCC(C(C)C)C(O)C1 (centres undefined)

>  <phenotypically active>
0

$$$$
>  <Compound>
CCCOc1ccn2c(C(C)=O)cc(-c3ccccc3S(C)(=O)=O)c2c1

>  <phenotypically active>
0

$$$$
>  <Compound>
CC(C)c1ccc(NC(=O)Cn2cnc3c2c(=O)n(C)c(=O)n3C)cc1

>  <phenotypically active>
0

$$$$
>  <Compound>
Nc1nc(Cl)nc2c1ncn2[C@H]1C[C@H](O)[C@@H](CO)O1

>  <phenotypically active>
1

$$$$
>  <Compound>
CC(C)(C)c1cc(/C=C(\C#N)C(N)=S)cc(C(C)(C)C)c1O

>  <phenotypically active>
0

$$$$
>  <Compound>
C=C[C@H]1CN2CC[C@H]1C[C@H]2[C@H](O)c1ccnc2ccc(OC)cc12 [Quinine dihydrochloride]

>  <phenotypically active>
1

$$$$
>  <Compound>
CNCCC(Oc1ccc(C(F)(F)F)cc1)c1ccccc1 (centres undefined)

>  <phenotypically active>
1

$$$$
>  <Compound>
Nc1ccc(-c2cccc3c(=O)cc(N4CCOCC4)oc23)cc1

>  <phenotypically active>
1

$$$$
>  <Compound>
C[N+]1(C)[C@@H]2C[C@@H](OC(=O)C(O)(c3cccs3)c3cccs3)C[C@H]1[C@@H]1O[C@@H]12 [Tiotropium bromide]

>  <phenotypically active>
0

$$$$
>  <Compound>
Cc1ccccc1Sc1ccc(/C=C2/SC(=S)NC2=O)cc1[N+](=O)[O-]

>  <phenotypically active>
0

$$$$
>  <Compound>
Cc1ccc(Nc2nnc(-c3ccc([N+](=O)[O-])cc3)o2)cc1Cl

>  <phenotypically active>
0

$$$$
>  <Compound>
Cc1cc2nc(NCCCO)n(CC(=O)c3cc(C(C)(C)C)c(O)c(C(C)(C)C)c3)c2cc1C

>  <phenotypically active>
1

$$$$
>  <Compound>
C#C[C@]1(O)CC[C@H]2[C@@H]3CCC4=CCCC[C@@H]4[C@H]3C(=C)C[C@@]21CC

>  <phenotypically active>
0

$$$$
>  <Compound>
CC(=O)Nc1nnc(S(N)(=O)=O)s1 [acetazolamide]

>  <phenotypically active>
0

$$$$
>  <Compound>
CC1(CN2CCC(n3c(=O)[nH]c4ccccc43)CC2)OCc2ccccc2-n2cccc21 (centres undefined)

>  <phenotypically active>
1

$$$$
>  <Compound>
CC1=C(C(=O)Nc2cc3cn[nH]c3cc2F)C(c2ccc(C(F)(F)F)cc2)CC(=O)N1 (centres undefined)

>  <phenotypically active>
1

$$$$
>  <Compound>
CC(C)c1ccc(-c2cc(=O)c3ccccc3o2)cc1

>  <phenotypically active>
1

$$$$
>  <Compound>
Cc1cc(C(=O)Nc2cccc(C(=O)Nc3cccc(C(F)(F)F)c3)c2)on1

>  <phenotypically active>
0

$$$$
>  <Compound>
C[C@@H]1CN(CC(=O)Nc2ccc3c(c2)Cc2cccc(-c4cc(=O)cc(N5CCOCC5)o4)c2S3)C[C@H](C)O1

>  <phenotypically active>
1

$$$$
>  <Compound>
N=C(N)NN=Cc1c(Cl)cccc1Cl

>  <phenotypically active>
0

$$$$
>  <Compound>
CCOc1cc([C@@H](CS(C)(=O)=O)N2C(=O)c3cccc(NC(C)=O)c3C2=O)ccc1OC

>  <phenotypically active>
0

$$$$
>  <Compound>
O=C(CCCCCCC(=O)Nc1cccnc1)NO [Pyroxamide]

>  <phenotypically active>
1

$$$$
>  <Compound>
COc1ccc(N(C)c2nc(C)nc3ccccc23)cc1 [MPC 6827 hydrochloride]

>  <phenotypically active>
1

$$$$
>  <Compound>
O=C(Nc1c[nH]nc1-c1nc2cc(CN3CCOCC3)ccc2[nH]1)NC1CC1

>  <phenotypically active>
1

$$$$
>  <Compound>
CC(C)(C)c1ccc(S(=O)(=O)/C=C/C#N)cc1

>  <phenotypically active>
1

$$$$
>  <Compound>
O=C(Nc1cccnc1)c1cc(-c2ccnc(F)c2)ccc1OCc1ccccc1

>  <phenotypically active>
0

$$$$
>  <Compound>
Cc1cnc(NC(=O)Nc2cc(Br)c(C)cc2OC[C@@H]2CNCCO2)cn1

>  <phenotypically active>
1

$$$$
